Hello, the source for this data is PubChem BioAssay (NCI), in case you need it.

Assignment: determine reported TGI for the given molecules.
Test system: MDA-MB-231 breast
Test: NCI tumour cell line growth inhibition, 48 h

Lookup: Please indicate TGI recorded for CC(C)=CCNc1ncnc2c1ncn2CCC(=O)O
Found: > 100 µM

Lookup: Please indicate TGI recorded for C=C1C(=O)O[C@@H]2C[C@@H](C)[C@@H]3C=CC(=O)[C@@]3(C)[C@@H](OC(=O)CCCC(=O)O[C@H]3[C@@H]4C(=C)C(=O)O[C@@H]4C[C@@H](C)[C@@H]4C=CC(=O)[C@]43C)[C@H]12
Found: 0.079 µM

Lookup: Please indicate TGI recorded for COc1ccc2c(c1)[n+](=O)c(/C=C/C(=O)c1cc(OC)c(OC)c(OC)c1)c(C)n2[O-]
Found: 88.4 µM

Lookup: Please indicate TGI recorded for CC(=O)OC1C2CCC3CC2C2(SCCS2)C31 (centres undefined)
Found: > 100 µM

====

System: IGROV1 ovarian
Test: NCI tumour cell line growth inhibition, 48 h
Assignment: determine reported TGI for the given compounds.

Lookup: Please indicate TGI recorded for COc1ccc(N=C(C)C(C)=Nc2ccc(OC)cc2)cc1
Found: > 100 µM

Lookup: Please indicate TGI recorded for OC[C@H]1N[C@H](CO)[C@@H](O)[C@H]1O
Found: > 100 µM

Lookup: Please indicate TGI recorded for CC1(C)Cc2ccccc2C(C)(Cl)C(=O)N1 (centres undefined)
Found: > 10 µM

Lookup: Please indicate TGI recorded for COc1cccc(C=NC23CC4CC(CC(C4)C2)C3)c1
Found: > 100 µM

Lookup: Please indicate TGI recorded for C=CCCCN(C(=O)c1ccccc1)c1ccc(C(=O)OC)o1
Found: > 100 µM

Lookup: Please indicate TGI recorded for O=C(Oc1cncc(Cl)c1)c1cc2ccccc2sc1=O
Found: > 100 µM

Lookup: Please indicate TGI recorded for CN(C)C(=S)/N=c1\ssc(=Nc2ccccc2)n1-c1ccccc1
Found: > 100 µM

Lookup: Please indicate TGI recorded for COc1c2c(c(O)c3c4c(c(C)cc13)C1OC3(C(OC)OC5CC(C)(O)C(OC6CC(C)(O)C(O)C(C)O6)C(C)O5)OC1C(OC)(O4)C31CO1)C(=O)C(O)CC2OC1CC(C)(O)C(OC(C)=O)C(C)O1 (centres undefined)
Found: 0.957 µM

Lookup: Please indicate TGI recorded for C[C@]12CC[C@H]3[C@@H](CC=C4C[C@@H](O)CC[C@@]43C)[C@@H]1C/C(=C\c1ccc([N+](=O)[O-])cc1)[C@@H]2O
Found: > 100 µM

====

System: SK-MEL-5 melanoma
Experiment: NCI tumour cell line growth inhibition, 48 h; in the data active means GI50 below about 0.43 µM; inactive means the rest
Pick one and only one: label 1 for active, label 0 for inactive

Lookup: Entry CN(Cc1cnc2nc(N)nc(N)c2n1)c1c(Cl)cc(C(=O)NC(CCC(=O)O)C(=O)O)cc1Cl (stereo not given) : call = ?
Found: label 1

Lookup: Entry CN(C)CCN=c1nc2c(c(N)n1-c1ccccc1)c(=S)n(-c1ccccc1)c(=S)n2-c1ccccc1 : call = ?
Found: label 0

Lookup: Entry COc1ccc2c(CN3CCCC[C@H]3O)cc3cc4c(cc3c2c1)OCO4 : call = ?
Found: label 1

Lookup: Entry C[C@]12CCC3c4ccc(O)cc4CCC3C1CC[C@@H]2NC(=O)/C=C/c1ccc(O)c(O)c1 (stereo not given in full) : call = ?
Found: label 0

Lookup: Entry COc1cc(C=NCC(=O)CSC(c2ccccc2)c2ccccc2)ccc1O : call = ?
Found: label 0
